target: T1, 8A; assay: flow cytometry on peptide-pulsed T2 cells, scFv 100 nM
T1 construct: also called HLA-A2 / point-mutant NY-ESO peptide 8A complex on T2 cells

| binder | standardized gMFI |
| --- | --- |
| NYC-0004 (scFv, not shown: small tags and cut ends, also called T1 scFv; NYC-0004 tag adduct) scFv: EVQLLESGGGLVQPGGSLRLSCAASGFTFSTYQMSWVRQAPGKGLEWVSGIVSSGGSTAYADSVKGRFTISRDNSKNTLYLQMNSLRAEDTAVYYCAGELLPYYGMDVWGQGTTVTVSSGGGGSGGGGSGGGGSQSELTQPRSVSGSPGQSVTISCTGTERDVGGYNYVSWYQQHPGKAPKLIIHDVIERSSGVPDRFSGSKSGNTASLTISGLQAEDEADYYCWSFAGGYYVFGTGTDVTVL | 3.69 |
| NYA-1154 (scFv) scFv: GEVQLVESGGGVVQPGRSLTPSCSASGFSIRSYDMHWVRQAPGKGLEWVATISYDGSQKYFADSVKGRFTIFRDESENMVYLQMSGLRVEDTAVYHCARGSSNHYEAFDIWGQGTMVTVSSGGGGSGGGGSGGGGSQSVLTQPPSVSAAPGQKVTISCSGSSSNIGNNYVSWYQRLPGTAPKLLIYDNNKRPSGIPDRFSGSKSGTSATLGITGLQTGDEADYYCGAWDSSLSAPWVFGGGTKVTVLGAAAGAGGDYKDDDDKGAAAHHHHHH | 11.9 |
| NYA-0001 (scFv, also called NYA-0001 tag adduct; NY-R119 expressed in a cultured mammalian cell) scFv: GEVQLVESGGGVVQPGRSLTPSCSASGFSIRSYDIHWVRQAPGKGLEWVATISYDGSQKYFADSVKGRFTIFRDESENMVYLQMSGLRVEDTAVYHCARGSSGHYEAFDIWGQGTMVTVSSGGGGSGGGGSGGGGSQSVLTQPPSVSAAPGQKVTISCSGSSSNIGNNYVSWYQQLPGTAPKLLIYDNNKRPSGIPDRFSGSKSGTSATLGITGLQTGDEADYYCGTWDSSLSAPWVFGGGTKVTVLGAAAGAGGDYKDDDDKGAAAHHHHHH | 6.67 |
| NYC-0003 (scFv, not shown: small tags and cut ends, also called 3M4E5 scFv; NYC-0003 tag adduct) scFv: EVQLLESGGGLVQPGGSLRLSCAASGFTFSTYQMSWVRQAPGKGLEWVSGIVSSGGSTAYADSVKGRFTISRDNSKNTLYLQMNSLRAEDTAVYYCAGELLPYYGMDVWGQGTTVTVSSGGGGSGGGGSGGGGSQSELTQPRSVSGSPGQSVTISCTGTSRDVGGYNYVSWYQQHPGKAPKLIIHDVIERSSGVPDRFSGSKSGNTASLTISGLQAEDEADYYCWSFAGSYYVFGTGTDVTVL | 3.42 |
| NYA-2023 (scFv) scFv: GEVQLVESGGGVVQPGRSLTPSCSASGFSIRSYDIHWVRQAPGKGLEWVATISYDGSQKYFADSVKGRFTIFRDESENMVYLQMSGLRVEDTAVYHCARGSSGHYEAFDIWGQGTMVTVSSGGGGSGGGGSGGGGSQSVLTQPPSVSAAPGQKVTISCSGSSSNIGNWYVSWYQQLPGTAPKLLIYDNNKRPSGIPDRFSGSKSGTSATLGITGLQTGDEADYYCGTWDSSLSAPWVFGGGTKVTVLGAAAGAGGDYKDDDDKGAAAHHHHHH | 5.4 |
